Tested on: bedstraw
Assay: Test B pre/postemergence bedstraw
Assay type: in vivo, Galium aparine
Conditions: Rate 62 g/ha, Preemergence; scale 0 to 10
# Bedstraw plant response rating per entry
observable: Bedstraw plant response rating

compound="COC1CCC(Cn2c(=O)on(C(=O)N(c3ccc(F)cc3)C(C)C)c2=O)=NO1 (stereo not shown) [Compound 766]" measured_target=bedstraw reported=4
compound="CC(C)N(C(=O)n1oc(=O)n(CCN(C)C(=O)c2ccccc2)c1=O)c1ccccc1 [Compound 761]" measured_target=bedstraw reported=0
compound="CC(C)N(C(=O)n1oc(=O)n(C(C)C2=NOCC2)c1=O)c1ccc(Cl)cc1 (racemic) [Compound 759]" measured_target=bedstraw reported=0
compound="CC(C)N(C(=O)n1oc(=O)n(CC2=NOCCO2)c1=O)c1ccc(F)cc1 [Compound 765]" measured_target=bedstraw reported=0

###

# Crabgrass plant response rating per entry
Tested on: crabgrass
Test: Test B pre/postemergence crabgrass
Assay type: in vivo, Digitaria sanguinalis
Details: Preemergence, Rate 62 g/ha; scale 0 to 10 (0 no effect, 10 complete control)
Procedure: […] At the same time, these crop and weed species were also treated with postemergence applications of test chemicals formulated in the same manner. […] Treated plants and controls were maintained in a greenhouse for twelve to sixteen days, after which all species were compared to controls and visually evaluated. […]
observable: Crabgrass plant response rating

molecule="CC(C)N(C(=O)n1oc(=O)n(C(C)c2ccccc2)c1=O)c1ccc(Cl)cc1 (centres unmarked)" reported=1
molecule="CCOC(=O)CC(C(=O)OCC)n1c(=O)on(C(=O)N(c2ccc(F)cc2)C(C)C)c1=O (centres unmarked)" reported=0
molecule=Cc1cccc(C(C)C)c1-n1c(=O)on(C(=O)N(c2ccccc2)C(C)C)c1=O reported=0
molecule=COC(=O)CCCn1c(=O)on(C(=O)N(c2ccc(Cl)cc2)C(C)C)c1=O reported=4
molecule=COCn1c(=O)on(C(=O)N(c2ccccc2)C(C)C)c1=O reported=8

###

# Crabgrass plant response rating per entry
Test system: crabgrass
Assay: Test B pre/postemergence crabgrass
Assay type: in vivo, Digitaria sanguinalis
Settings: Preemergence, Rate 250 g/ha; scale of 0 to 10 where 0 is no effect and 10 is complete control
observable: Crabgrass plant response rating

molecule="CCOC(=O)C(C)N(C(=O)n1oc(=O)n(C(C)C)c1=O)c1ccc(F)cc1 (centres unmarked) [Compound 302]" reported=2
molecule="CC(C)N(C(=O)n1oc(=O)n(C2CCCCCC2)c1=O)c1ccc(F)cc1 [Compound 340]" reported=8
molecule="CC(C)N(C(=O)n1oc(=O)n(C2CC2)c1=O)c1ccc(F)cc1F [Compound 299]" reported=9
molecule="CC(C)N(C(=O)n1oc(=O)n(C(CF)CF)c1=O)c1ccc(F)cc1 [Compound 390]" reported=10
molecule="CCC=CCn1c(=O)on(C(=O)N(c2ccc(F)cc2)C(C)C)c1=O [Compound 286]" reported=10

###

System: morningglory
Assay: Test B pre/postemergence morningglory
Format: in vivo, Ipomoea hederacea
Settings: Rate 125 g/ha, Postemergence; scale 0 to 10
observable: Morningglory plant response rating

compound="CCN(C(=O)n1oc(=O)n(C)c1=O)C1CCCCC1 [Compound 228]" reported=3
compound="CCN(C(=O)n1oc(=O)n(C(C)C)c1=O)c1nncs1 [Compound 190]" reported=0
compound="COc1nc(OC)nc(N(C(=O)n2oc(=O)n(-c3c(C)cccc3C)c2=O)C(C)C)n1 [Compound 180]" reported=0
compound="CC(C)N(C(=O)n1oc(=O)n(CC2CO2)c1=O)c1ccc(F)cc1 (centres unmarked) [Compound 188]" reported=0
compound="CC(C)N(C(=O)n1oc(=O)n(C2CCCC(C(F)(F)F)C2)c1=O)c1ccc(F)cc1 (centres unmarked) [Compound 184]" reported=6

###

System: pigweed
Assay: Test B pre/postemergence pigweed
Format: in vivo, Amaranthus retroflexus
Settings: Rate 62 g/ha, Postemergence; scale of 0 to 10 where 0 is no effect and 10 is complete control
Experimental: […] At the same time, these crop and weed species were also treated with postemergence applications of test chemicals formulated in the same manner. […] Treated plants and controls were maintained in a greenhouse for twelve to sixteen days, after which all species were compared to controls and visually evaluated. […]
observable: Redroot pigweed plant response rating

structure_notation=CCN(C(=O)n1oc(=O)n(C(C)C)c1=O)c1nncs1 reported=0
structure_notation=Cc1nc(C)c(-n2c(=O)on(C(=O)N(c3ccccc3)C(C)C)c2=O)s1 reported=0
structure_notation=CC(C)N(C(=O)n1oc(=O)n(C(C)(C)C)c1=O)c1ccccc1 reported=0
structure_notation=CCN(C(=O)n1oc(=O)n(N(C)c2ccccc2)c1=O)C1CCCCC1 reported=0
structure_notation=CC(C)N(C(=O)n1oc(=O)n(CCC(F)(F)F)c1=O)c1ccc(F)cc1 reported=0
structure_notation=CC(C)N(C(=O)n1oc(=O)n(C(C)C)c1=O)c1ccc(F)cc1F reported=3
structure_notation=CC(C)N(C(=O)n1oc(=O)[nH]c1=O)c1ccc(F)cc1 reported=0
structure_notation=CC(C)N(C(=O)n1oc(=O)n(C(CF)CF)c1=O)c1ccc(F)cc1 reported=2

###

Test system: soybean
Assay: Test B pre/postemergence soybean
Assay type: in vivo, Glycine max
Details: Rate 500 g/ha, Postemergence; scale 0 to 10, 0 is no effect, 10 is complete control
# Soybean plant response rating per entry
observable: Soybean plant response rating

compound="CCOC(=O)CC(C(=O)OCC)n1c(=O)on(C(=O)N(c2ccc(Cl)cc2)C(C)C)c1=O (stereo not shown)" reported=1
compound=CC(C)N(C(=O)n1oc(=O)n(CF)c1=O)c1ccc(F)cc1 reported=4
compound=CC(C)N(C(=O)n1oc(=O)n(CCCC#N)c1=O)c1ccc(F)cc1F reported=5
compound=CCOP(=O)(Cn1c(=O)on(C(=O)N(c2ccc(F)cc2F)C(C)C)c1=O)OCC reported=3

###

System: wild oat
Assay: Test B pre/postemergence wild oat
Type: in vivo, Avena fatua
Conditions: Preemergence, Rate 125 g/ha; scale of 0 to 10 where 0 is no effect and 10 is complete control
# Wild oats plant response rating per entry
observable: Wild oats plant response rating

molecule="CC(C)N(C(=O)n1oc(=O)n(Cc2nnc(Cl)s2)c1=O)c1ccc(F)cc1F [Compound 645]" measured_target="wild oat" reported=0
molecule="CCOP(=O)(Cn1c(=O)on(C(=O)N(c2ccc(F)cc2)C(C)C)c1=O)OCC [Compound 587]" measured_target="wild oat" reported=2
molecule="CC(C)N(C(=O)n1oc(=O)n(CC(=O)C2CCC2)c1=O)c1ccc(F)cc1 [Compound 640]" measured_target="wild oat" reported=0
molecule="CCOC(Cn1c(=O)on(C(=O)N(c2ccc(F)cc2F)C(C)C)c1=O)OCC [Compound 630]" measured_target="wild oat" reported=3

###

# Plant response rating, Soybean per entry
Test system: soybean
Assay: Test B pre/postemergence soybean
Type: in vivo, Glycine max
Conditions: Postemergence, Rate 250 g/ha; scale 0 to 10, 0 is no effect, 10 is complete control
observable: Plant response rating, Soybean

compound=CC(C)N(C(=O)n1oc(=O)n(C(CF)CF)c1=O)c1ccc(F)cc1 reported=3
compound="Cc1nc(Cl)sc1C(C)n1c(=O)on(C(=O)N(c2ccc(F)cc2)C(C)C)c1=O (stereo not shown)" reported=1
compound=CC(C)N(C(=O)n1oc(=O)n(N2CCOCC2)c1=O)c1ccc(F)cc1F reported=3
compound=CC(C)N(C(=O)n1oc(=O)n(CCC(F)(F)F)c1=O)c1ccc(F)cc1 reported=5

###

Test system: velvetleaf
Assay: Test B pre/postemergence velvetleaf
Format: in vivo, Abutilon theophrasti
Conditions: Postemergence, Rate 125 g/ha; scale of 0 to 10 where 0 is no effect and 10 is complete control
Description: […] At the same time, these crop and weed species were also treated with postemergence applications of test chemicals formulated in the same manner. […] Treated plants and controls were maintained in a greenhouse for twelve to sixteen days, after which all species were compared to controls and visually evaluated. […]
observable: Velvetleaf plant response rating

compound=Cc1ccc(N(C(=O)n2oc(=O)n(C(C)C)c2=O)C(C)C)cc1 reported=2
compound=CC(C)N(C(=O)n1oc(=O)n(C(C)(C)C)c1=O)c1ccccc1 reported=0
compound="CCOC(=O)CC(C(=O)OCC)n1c(=O)on(C(=O)N(c2ccc(Cl)cc2)C(C)C)c1=O (stereo not drawn)" reported=0
compound=CC(C)N(C(=O)n1oc(=O)n(Cc2ccccc2)c1=O)c1ccccc1 reported=0
compound=CC(C)N(C(=O)n1oc(=O)n(C(C)C)c1=O)c1ccc(F)cc1F reported=2
compound=CC(C)N(C(=O)n1oc(=O)n(CCCCCl)c1=O)c1ccc(F)cc1 reported=5

###

System: wild oat
Experiment: Test B pre/postemergence wild oat
Assay type: in vivo, Avena fatua
Settings: Preemergence, Rate 62 g/ha; scale of 0 to 10 where 0 is no effect and 10 is complete control
observable: Wild oats plant response rating

molecule="CC(C)N(C(=O)n1oc(=O)n(CC(=O)C2CCC2)c1=O)c1ccc(F)cc1 [Compound 640]" measured_target="wild oat" reported=0
molecule="CCN(Cc1ccncc1)C(=O)n1oc(=O)n(C(C)C)c1=O [Compound 189]" measured_target="wild oat" reported=0
molecule="CC(C)N(C(=O)n1oc(=O)n(C2CC2)c1=O)c1ccc(F)cc1F [Compound 299]" measured_target="wild oat" reported=2
molecule="CCN(C(=O)n1oc(=O)n(N(C)C)c1=O)C1CCCCC1 [Compound 274]" measured_target="wild oat" reported=0
molecule="CC(C)N(C(=O)n1oc(=O)n(C(C)C2CC2)c1=O)c1ccc(Cl)cc1 (stereo not drawn) [Compound 700]" measured_target="wild oat" reported=4
molecule="CC(C)N(C(=O)n1oc(=O)n(Cc2nnc(Cl)s2)c1=O)c1ccc(F)cc1F [Compound 645]" measured_target="wild oat" reported=0
molecule="CC(C)N(C(=O)n1oc(=O)n(CC(C)(C)C)c1=O)c1ccccc1 [Compound 276]" measured_target="wild oat" reported=0
molecule="COc1nc(OC)nc(N(C(=O)n2oc(=O)n(-c3c(C)cccc3C)c2=O)C(C)C)n1 [Compound 180]" measured_target="wild oat" reported=0
molecule="CCN(C(=O)n1oc(=O)n(C)c1=O)C1CCCCC1 [Compound 228]" measured_target="wild oat" reported=0
